Target: T1, human CD40 full-length (human, UniProt P25942 21-277)
T1 construct: Also used for CD40 of Daudi cells, of CD40-expressing HEK293 cells and of the BPS CD40/NFkB HEK293 reporter cells where the row says so; also called CD4001012; CHOK1SV/CD40
T1 sequence (P25942 21-277): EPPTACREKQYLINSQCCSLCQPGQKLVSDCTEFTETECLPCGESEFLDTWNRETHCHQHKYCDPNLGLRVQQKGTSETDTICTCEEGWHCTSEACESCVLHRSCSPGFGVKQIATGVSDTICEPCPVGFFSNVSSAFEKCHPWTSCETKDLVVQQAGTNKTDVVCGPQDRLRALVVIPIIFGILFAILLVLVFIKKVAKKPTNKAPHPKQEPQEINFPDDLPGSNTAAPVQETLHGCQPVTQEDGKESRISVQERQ
Test: flow cytometry, CHOK1SV/human CD40 cells
reported property: binding result

binder | test result
CD4001096 (Fc fusion, As m65; not shown: wildtype IgG1 Fc region) DVQMTQSPILLSASVGDRVTITCRSSQSLVHYNGYTYVHWYQQRTNGSPRLLIYKVSNRFSGVPDRFSGSGSGTDFTLTISSLQPEDIADYFCQQTTHVPLTFGAGTKVEIKGGGGSGGGGSGGGGSGGGGSQVQLVESGGGLVQPGGSLRLSCAASGFTFSSYAMSWVRQAPGKGLVWVASISSAGTYIYYADSVKGRFTISRDNAKNTLYLQMTSLRAEDTAIYYCARHGNGYDPLWYFDVWGQGALVTVSS | binds
CD4001095 (Fc fusion, As m65; not shown: wildtype IgG1 Fc region) DVVMTQSPDTLSLSPGERATLSCRSSQSLVHYNGYTYLHWYQQQPGQAPRLLIYKVSNRFSGIPDRFSGSGSGTDFTLTISRLEPEDFAVYFCSQTTHVPLTFGQGTKLEIKGGGGSGGGGSGGGGSGGGGSQVQLVESGGGLVQPGGSLRLSCAASGFTFSSYAMSWVRQAPGKGLVWVASISSAGTYIYYADSVKGRFTISRDNAKNTLYLQMTSLRAEDTAIYYCARHGNGYDPLWYFDVWGQGALVTVSS | binds
CD4001101 (Fc fusion, CDR-grafted 1D5 scFv in scFv-hFc format; not shown: the human Fc (hinge-CH2-CH3) of the scFv-hFc format) scFv: DIQMTQSPSTLSASVGDRVTITCKSSQSLLFSVNQKNYLAWYQQKPGKAPKLLIYWASTRESGVPARFSGSGSGTEFTLTISSLQPDDFATYYCQHYYSYPWTFGQGTKVEVKGGGGSGGGGSGGGGSGGGGSQVQLVQSGAEVKKPGASVKVSCKASGYTFSTSWIEWIKQAPGQGLEWIGEILPGSGSTNYNENFRNKATFTADTSISTAYMELSRLRSDDTAVYYCARGDDGSYVRWYFDVWGQGTLVTVSS | binds
